- test_method_notes: Literature Cmax of clofazimine (Nix et al., 2004)
- stated_conditions: in vivo; clofazimine 20 mg dose; read-out: Cmax, literature value scaled to dose of the study
observation_type: Cmax
Report the figure along with its unit, number first.

INPUT: Using known records, supply Cmax for CC(C)/N=c1\cc2n(-c3ccc(Cl)cc3)c3ccccc3nc-2cc1Nc1ccc(Cl)cc1 [CLOFAZIMINE, clofazimine]
OUTPUT: 23 ng/mL
